# method.description: yeast display, Sf9 membrane polyspecificity reagent, FACS + sequencing; frameworks hold sequencing errors
readout.label: polyreactivity (PSR sort gate)

residue.codes | readout.label | result
QVQLQESGGGLVQAGGCLSCTASGTIFGQGDMGWYRQAPGKERELVATINDGASTYYADSVKGRFTISRDKAKNTVYLQKNSLKPDDTAVYYCAVFKDITTYFGYLGQGTQVTVSS | polyreactivity (PSR sort gate) | low polyreactivity
QVQLVESGGGLVQAGGSLRLSCAASGSTFNYNAMGWYRQAPGKERELVATITTSGGSTYYADSVKGRFTISRDNAKNTVYLQMNSLKPEDTAVYYCAARYPWYRTIDRYDYWGQGTQVTVSS | polyreactivity (PSR sort gate) | low polyreactivity

---

# method.description: yeast display, Sf9 membrane polyspecificity reagent, FACS + sequencing; frameworks hold sequencing errors
readout.label: polyreactivity (PSR sort gate)

residue.codes | readout.label | result
QVQLVERGGGLVQAGGSHRLSCAASGRIFPGYAKGWYRQAPGKELELVAAISRIGGDTYYADSVKGRFTISRDNAKNTVYLQMNSLKPEDTPVYYCAARYGRHRVSWYATWRYGYWGQGTQVTVSS | polyreactivity (PSR sort gate) | low polyreactivity
QVQLVQSGGGLVQAGGSLRLSCAASGSTFRIYAMGWYRQAPGKEREFVAAISDRGGRTYYADSVKGRFTISRDNAKNTVYLQMNSLKPEDTAVYYCAAVKLLSSAPGDDCQMNYWGQGTQVTVSS | polyreactivity (PSR sort gate) | low polyreactivity
QVQLVESGGCLVQAGGSLRLSCAASGLTFNKNAMGWYRQAPGKEREFVAAITRRGGSTYYADSVKGRFTISRDNAKNTVYLQMNSLKPEDTAVYYCAVYPASVNPYHYDYWGQGTQVTVSS | polyreactivity (PSR sort gate) | high polyreactivity
QVQLVESGGGLVQAGGSLRLSCAASGFTFYSYAMGWYRQAPGKERELVAAITRSGGSTRYADSVKGRFTISRDNAKNTVYLQMNSLKPEDTAVYYCAARFVRNYVYKYNYWGQGTQVTVSS | polyreactivity (PSR sort gate) | high polyreactivity
QVQLVESGGGLVQAGGSLRLSCAASGITFDYYAMGWYRQSPGKERELVAAISYSAGSTYYADSVKGRFTISRDNAKNTVYLQMNSLKPEDTAVYYCAAETFTISSDYYYWGQGTQVTVSS | polyreactivity (PSR sort gate) | low polyreactivity
QVQRVESGGGLVQAGGRLRVSCAASGRTFYIYAMGWYRQAPGKERELVADITSGGSTYYADSVKGRFTISRDNAKNTVYLQMNCLKPEDTAVYYCNAGPHWFYRYGRYDYWGQGTQVTVSS | polyreactivity (PSR sort gate) | low polyreactivity
QVQLVESGGVLVQAGVSLRLSCAASGRNFLWYVMGCYRQAPGKERELVAAISSGGRTYYADSVKGRFTSSRDNAKHTLYLQMNSLKPEDTAVYYCAAVRRYLKAAYGYWGQGTQVTVSS | polyreactivity (PSR sort gate) | low polyreactivity
QVQLVESGGGLVQAVGSLSLSCAASGIIFTWYDMGWYRPAPGKERELVAAISYIGGGSTYYADSVKGRFTISRDNAKNTVYLQMNSLKPEDTAVYYCATDFYYAKYGYWGQGTQVTVSS | polyreactivity (PSR sort gate) | low polyreactivity
QVQLVESGGGLVQAGGSLRLSCAASGSTFVPYTMGWYRQAPGKERELVAAISGSGGTDYADSVKGRFTISRDNAKNTVYLQMNSLKPEDTAVYYCAADPQYWRFYSYGGGDDYWGQGTQVTVSS | polyreactivity (PSR sort gate) | low polyreactivity
QVQLVESGGGLVKAGGSLRLSCAASGSTFPYYAMGWYRQAPGTEREFVAAISSSGGSTYYADSVKGRFTISRDNAKNTVYLQMNSLKPEDTAVYYFAAQGARRNYYRYGTYTNRRYDYWGQGTQVTVSS | polyreactivity (PSR sort gate) | high polyreactivity
QVQLVESGGGLVQAGGSLRLSCAASGRTFYWYAMGWYRQAPGKERELVAAIRWSTGSTYYADSVKGRFTISRDNAKNTVYLQMNSLKPEDTAVYYCAATRPSWRYNYWGQGTQVTVSS | polyreactivity (PSR sort gate) | high polyreactivity
